Reported pEC50 values follow for various molecules
# target under test: mouse TGR5 receptor (Mus musculus)
# Construct: host or cells: HEK293-EBNA (293 c18, ATCC CRL10852)
# Sequence (Q80SS6 whole entry): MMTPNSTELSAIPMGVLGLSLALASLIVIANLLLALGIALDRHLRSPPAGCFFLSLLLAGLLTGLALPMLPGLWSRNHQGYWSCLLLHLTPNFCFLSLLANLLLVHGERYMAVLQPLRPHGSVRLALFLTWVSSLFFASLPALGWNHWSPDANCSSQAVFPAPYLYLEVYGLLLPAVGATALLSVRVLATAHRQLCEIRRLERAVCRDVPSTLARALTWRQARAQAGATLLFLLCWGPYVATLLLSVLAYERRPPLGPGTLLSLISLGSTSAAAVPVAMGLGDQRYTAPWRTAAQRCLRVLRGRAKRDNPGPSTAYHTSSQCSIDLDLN
# experiment summary: Mouse TGR5 HTRF cAMP production assay (HEK293-EBNA cells, Cisbio cAMP HiRange kit)
# Format: cell-based
# assay context: HEK293-EBNA cells overexpressing mouse TGR5, HTRF cAMP assay
pEC50: −log10 of the molar value.

{"molecule": "NS(=O)(=O)CCNC(=O)CCCC1CCN(c2cc(N3CCC[C@H]3C(=O)NCCc3ccc(C(F)(F)F)cc3)nc(C(F)(F)F)n2)CC1 [Compound 59]", "target under test": "mouse TGR5 receptor (Mus musculus)", "pEC50": "> 7.00"}
{"molecule": "N#Cc1ccc(CCNC(=O)[C@@H]2CCCN2c2cc(N3CCC(CCNC(=O)NCCS(=O)(=O)NCC(=O)O)CC3)nc(C(F)(F)F)n2)cc1 [Compound 107]", "target under test": "mouse TGR5 receptor (Mus musculus)", "pEC50": "> 7.00"}
{"molecule": "N#Cc1ccc(CCNC(=O)[C@@H]2CCCN2c2cc(N3CCC(CCCC(=O)NCC(=O)O)CC3)nc(C(F)(F)F)n2)cc1 [Compound 103]", "target under test": "mouse TGR5 receptor (Mus musculus)", "pEC50": "> 7.00"}
{"molecule": "N#Cc1ccc(CCNC(=O)[C@@H]2CCCN2c2cc(-c3ccc(CCN)cc3)nc(C(F)(F)F)n2)cc1 [Compound 184]", "target under test": "mouse TGR5 receptor (Mus musculus)", "pEC50": "6.00 to 7.00"}
{"molecule": "N#Cc1ccc(CCNC(=O)[C@@H]2CCCN2c2cc(N3CCC(CCCC(=O)NCCNc4nccc(C(=O)O)n4)CC3)nc(C(F)(F)F)n2)cc1 [Compound 102]", "target under test": "mouse TGR5 receptor (Mus musculus)", "pEC50": "> 7.00"}
{"molecule": "CC(C)(C)OC(=O)N[C@@H](CO)C(=O)N1CCN(c2cc(N3CCC[C@@H](C(=O)NCCc4ccc(C(F)(F)F)cc4)C3)nc(C(F)(F)F)n2)CC1 [Compound 341]", "target under test": "mouse TGR5 receptor (Mus musculus)", "pEC50": "6.00 to 7.00"}
{"molecule": "COc1cc(C(F)(F)F)ccc1CCNC(=O)[C@@H]1CCCN(c2cc(N3CCC(CCO)CC3)nc(C(F)(F)F)n2)C1 [Compound 332]", "target under test": "mouse TGR5 receptor (Mus musculus)", "pEC50": "> 7.00"}
{"molecule": "O=C(O)CCNC(=O)NCCC1CCN(c2cc(N3CCC[C@H]3C(=O)NCCc3ccc(-c4cccnc4)cc3)nc(C(F)(F)F)n2)CC1 [Compound 377]", "target under test": "mouse TGR5 receptor (Mus musculus)", "pEC50": "6.00 to 7.00"}
{"molecule": "O=C(O)CCCC1CCN(c2cc(N3C[C@H](O)C[C@H]3C(=O)NCCc3ccc(C(F)(F)F)cc3)nc(C(F)(F)F)n2)CC1 [Compound 212]", "target under test": "mouse TGR5 receptor (Mus musculus)", "pEC50": "> 7.00"}
{"molecule": "N#Cc1ccc(CCNC(=O)[C@@H]2CCCN2c2cc(N3CCC(CCCC(=O)NCCNc4ncnc5c4ncn5[C@@H]4O[C@H](CO)C(O)C4O)CC3)nc(C(F)(F)F)n2)cc1 (stereo partly drawn) [Compound 97]", "target under test": "mouse TGR5 receptor (Mus musculus)", "pEC50": "> 7.00"}
{"molecule": "COCCC1CCN(c2cc(N3CCC[C@H]3C(=O)NCCc3ccc(C#N)cc3)nc(C(F)(F)F)n2)CC1 [Compound 25]", "target under test": "mouse TGR5 receptor (Mus musculus)", "pEC50": "> 7.00"}
{"molecule": "O=C(CCCC1CCN(c2cc(N3CCC[C@H]3C(=O)NCCc3ccc(C(F)(F)F)cc3)nc(C(F)(F)F)n2)CC1)NCCS(=O)(=O)O [Compound 58]", "target under test": "mouse TGR5 receptor (Mus musculus)", "pEC50": "> 7.00"}
{"molecule": "N#Cc1ccc(CCNC(=O)[C@@H]2CCCN2c2cc(-c3ccc(COCC(=O)O)cc3)cc(C(F)(F)F)n2)cc1 [Compound 208]", "target under test": "mouse TGR5 receptor (Mus musculus)", "pEC50": "> 7.00"}
{"molecule": "O=C(NCCc1ccc(C(F)(F)F)cc1)[C@@H]1CCN1c1cc(N2CCC(CCCC3CCN(C(=O)CS(=O)(=O)O)CC3)CC2)nc(C(F)(F)F)n1 [Compound 280]", "target under test": "mouse TGR5 receptor (Mus musculus)", "pEC50": "> 7.00"}
{"molecule": "N#CCCN1CCN(c2cc(N3CCC[C@H]3C(=O)NCCc3ccc(C#N)cc3)nc(C(F)(F)F)n2)CC1 [Compound 32]", "target under test": "mouse TGR5 receptor (Mus musculus)", "pEC50": "> 7.00"}
{"molecule": "CN(C)CC(=O)N1CCN(c2cc(N3CCC[C@@H](C(=O)NCCc4ccc(C(F)(F)F)cc4)C3)nc(C(F)(F)F)n2)CC1 [Compound 338]", "target under test": "mouse TGR5 receptor (Mus musculus)", "pEC50": "6.00 to 7.00"}
{"molecule": "O=C(CCCC1CCN(c2cc(N3CCC[C@H]3C(=O)NCCc3cccc(-c4ccncc4)c3)nc(C(F)(F)F)n2)CC1)NCS(=O)(=O)O [Compound 354]", "target under test": "mouse TGR5 receptor (Mus musculus)", "pEC50": "6.00 to 7.00"}
{"molecule": "O=C(O)CNS(=O)(=O)CCNC(=O)CCCC1CCN(c2cc(N3CCC[C@H]3C(=O)NCCc3ccc(C(F)(F)F)cc3)nc(C(F)(F)F)n2)CC1 [Compound 114]", "target under test": "mouse TGR5 receptor (Mus musculus)", "pEC50": "> 7.00"}
{"molecule": "N#Cc1ccc(CCNC(=O)[C@@H]2CCCN2c2cc(N3CCC(CCNc4c(NCCC(=O)O)c(=O)c4=O)CC3)nc(C(F)(F)F)n2)cc1 [Compound 368]", "target under test": "mouse TGR5 receptor (Mus musculus)", "pEC50": "> 7.00"}
{"molecule": "CS(=O)(=O)NCCOCCNC(=O)NCCC1CCN(c2cc(N3CC[C@H]3C(=O)NCCc3ccc(C#N)cc3)nc(C(F)(F)F)n2)CC1 [Compound 292]", "target under test": "mouse TGR5 receptor (Mus musculus)", "pEC50": "> 7.00"}
{"molecule": "N#CCCN1CCN(c2cc(N3CCC[C@@H](C(=O)NCCc4ccc(C#N)cc4)C3)nc(C(F)(F)F)n2)CC1 [Compound 316]", "target under test": "mouse TGR5 receptor (Mus musculus)", "pEC50": "> 7.00"}

// data source = patent US10654834B2
